Provenance of the data: BindingDB's records for doi:10.1007/s00044-013-0771-5

For each of the compounds below, state its IC50.
subject of test: Prostaglandin G/H synthase 1/2 (Homo sapiens, UniProt P23219+P35354)
Sequence (P35354 whole entry): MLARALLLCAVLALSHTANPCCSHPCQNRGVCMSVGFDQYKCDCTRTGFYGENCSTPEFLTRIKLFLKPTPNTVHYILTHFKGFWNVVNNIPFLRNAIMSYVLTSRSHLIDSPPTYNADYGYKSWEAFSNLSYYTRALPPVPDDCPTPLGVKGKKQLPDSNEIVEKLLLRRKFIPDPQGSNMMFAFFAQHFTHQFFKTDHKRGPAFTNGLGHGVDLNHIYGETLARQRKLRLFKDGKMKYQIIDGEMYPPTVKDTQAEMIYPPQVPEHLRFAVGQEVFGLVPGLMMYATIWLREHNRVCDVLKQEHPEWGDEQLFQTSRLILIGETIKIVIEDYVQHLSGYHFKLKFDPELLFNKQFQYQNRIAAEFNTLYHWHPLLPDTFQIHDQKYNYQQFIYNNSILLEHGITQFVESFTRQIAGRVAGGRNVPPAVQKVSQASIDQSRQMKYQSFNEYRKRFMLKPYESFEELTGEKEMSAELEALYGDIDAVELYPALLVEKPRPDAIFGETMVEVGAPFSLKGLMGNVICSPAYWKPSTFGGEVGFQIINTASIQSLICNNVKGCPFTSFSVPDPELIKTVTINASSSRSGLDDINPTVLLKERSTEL
Sequence (P23219 whole entry): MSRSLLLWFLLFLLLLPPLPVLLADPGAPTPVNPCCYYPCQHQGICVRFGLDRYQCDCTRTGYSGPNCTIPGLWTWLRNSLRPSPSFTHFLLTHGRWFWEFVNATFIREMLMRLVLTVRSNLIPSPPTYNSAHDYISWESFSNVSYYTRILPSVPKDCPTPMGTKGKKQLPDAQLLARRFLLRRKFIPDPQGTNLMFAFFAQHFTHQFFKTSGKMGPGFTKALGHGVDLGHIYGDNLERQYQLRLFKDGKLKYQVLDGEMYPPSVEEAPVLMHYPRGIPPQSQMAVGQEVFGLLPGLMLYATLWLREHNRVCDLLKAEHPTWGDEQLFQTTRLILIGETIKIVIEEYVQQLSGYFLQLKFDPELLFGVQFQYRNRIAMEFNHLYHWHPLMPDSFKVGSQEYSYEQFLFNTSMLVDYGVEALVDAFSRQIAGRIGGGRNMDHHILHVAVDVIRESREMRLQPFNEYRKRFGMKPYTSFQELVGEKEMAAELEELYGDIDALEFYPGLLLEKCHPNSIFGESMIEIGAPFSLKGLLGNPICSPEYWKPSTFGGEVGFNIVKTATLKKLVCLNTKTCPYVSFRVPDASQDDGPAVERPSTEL
experiment description: Inhibition of COX (unknown origin)
Give just the numeric value; µM need not be written.

input: Supply measured IC50 of O=C(O)Cc1cc(O)ccc1Nc1c(Cl)cccc1Cl [CHEBI:59612] in your reply.
output: 447

input: Supply measured IC50 of O=C(O)Cc1cc(O)ccc1Nc1c(Cl)cc(O)cc1Cl [CHEBI:223401] in your reply.
output: 912
